assay: yeast display, Sf9 membrane polyspecificity reagent, FACS + sequencing; frameworks hold sequencing errors
measurement.label: polyreactivity (PSR sort gate)

{"sequence.entry": "QVHLVESGGGLVQAGGSLRLSCAASGSIFSYYAMGWYRQAPGKERELVAAISQSGGSTYYADSVKGRFTISRDNAKNTVYLQMNSLKPEDTAVNYCNAGRGTFKRYTALQYWGQGTQVTVSS", "value": "low polyreactivity"}
{"sequence.entry": "QVQLVESGGGLVQAGGSLRLSCAASGSIFHYNAMGWYRQAPGKERELVARISVNGGRTYYADSVKGRFTISRDNAKNTDYLQMNSLKPEDTAVYYCAVEGVWRSFFYGYDSWGQGTQVTVSS", "value": "low polyreactivity"}
{"sequence.entry": "QVQLVESGGGLVQAGGSLRLSCAASGLTFYHYDMGWYRQAPGKERELVAAINFSAGITYYADSVKGRFTISRDNAKNTVYLQMNSLKPEDTAVYYCAAEPEWWWRGYGYWGQGTQVTVSS", "value": "low polyreactivity"}
{"sequence.entry": "QVQLVESGGGLVQARGSLRLSCAASGSIFGSYAMGWYRQAPGKDSELVADISCGGSTNYADSVKGRFTISRDNAKNTVYLQMNSLKPDDTAVYYCNADDPAGYLYLWGSWLESDYWGQGTQVTVSS", "value": "low polyreactivity"}
{"sequence.entry": "QVQLVESGGGLVQAGGSLRLSCAASGSIFYVNAMGWYRQEPGKERELVAAISYRGGSTYYADSVKGRFTISRDNAKNTVYLQMNSLKPEDTSVYYCAKRLYGSYHSDYWGQGTQVTVSS", "value": "high polyreactivity"}
{"sequence.entry": "QVQLVESGGGLVQAGGSLRLSCAASGRTFWIYAMGWYRQAPGKERELVAAISRGGSTYADSVKGRFTISRDNAKNTVYLQMNSLKPEDTAVYYCAASTPQYQYYYWGQGTQVTVSS", "value": "high polyreactivity"}
{"sequence.entry": "QVQLVESGGGLVQAGGSLRLSCAASGIIFHKYSMGWYRQAPGKERELVAVITWRGGTTYYADSVKGRFTISRDNAKNTVYLQMNSLKPEDTAVYYCAAKDRSPRVRYQYEYWGQGTQVTVSS", "value": "high polyreactivity"}
{"sequence.entry": "QVQLVESAGGLVQAGGSLRLSCAASGRIFQFYAMGWYRQAPGKERELVATITRGGSTYYADSVKGRFTISRDNAKNTVYLQMNSLKPEDTAVYYCAAGFAGKYYWGQGTQVTVSS", "value": "high polyreactivity"}
{"sequence.entry": "QVQLVESGGGLVQAGGSLRLSCAACGSIFEFNTMGWYRQAPGKERELVAAISSSGGRTYYADSVKGRFTISRDNAKNSVYLQMNSLKPEDTGVYYCNARRLVHNPDYDYWGQGTQVTVSS", "value": "high polyreactivity"}
{"sequence.entry": "QVQLVESGGGLVQAGGSLRLSCAASGRTFYSNAKGWSRQAPGKERELVAGISKRGTITYYADSVKGRFTISRDNAKNTVYLQMNSLKPEDTAVYYCAAKPPSYIVKGDGRDDYWGQGTQVTVSS", "value": "high polyreactivity"}
{"sequence.entry": "QVQLVESGGGLVQAGGSLRLSCAASGRIFIINAMGWYRQAPGKERELVAAITGTGSTYYADSVKGRFTISRDNAKNTVYLQMNSLKPEDTAVYYCAADVSYTYYGFWYDEYYWGQGTQVTVSS", "value": "high polyreactivity"}
{"sequence.entry": "QVQLVESGGGLVQAGGSLRLSWAASGRTFGVYAMGWYRQAPGTERELVATITRSGGRTYYADSVKGRFTLSRDTAKNTVYLQMNSLKPEATAVYYCNAGHGSLRYNYWGQGTQVTVSS", "value": "high polyreactivity"}
{"sequence.entry": "QVQLVESGGGLVQAGGSLRLSCAASGFIFAWSAMGWYRQAPGKERELVAAISYSGGSTFYADSVKGRFTISRDNAKNTVYLQMNSLKPEDTAVYYCARYYRALGTARNDYWGQGTQVTVSS", "value": "low polyreactivity"}
{"sequence.entry": "QVQLVESGGGLVQAGGSLRLSCAASGLTFSRNAMGWYRQAPGKEWELVAAISGSGGSTYYADSVKGRFTISRDNAKYTVYLQMNSLKPEDTAVYYCAKVSRSKQKFDYWGQGTQVTVSS", "value": "high polyreactivity"}
{"sequence.entry": "QVQLVESGGGLVQAGGSLRLSCAASGITFSYYAMGWYRQAPGKERELVAAITGGSTYYADSVKGRFTISRDNAKNTVYLQMNSLKPEDTAVYYCNADSLFEYLDYDYWGQGTQVTVSS", "value": "low polyreactivity"}
{"sequence.entry": "QVQLVESGGGLVQAGGSLRLSCAASGRTFANNAMGWYRQAPGKERELVAAITASGGRTYYADSVKGRFTISRDNAKNTVYLQLNSLKPEDTAVYYCAKRGYASGSKWDYGYWGQGTQVTVSS", "value": "high polyreactivity"}
{"sequence.entry": "QVQLVESGGGLVQAGGSLRLSCAASGRTFPVYAMGWYRQAPGKERELVAAITRSDDSTYYADSVKGRFTISRDNAKNTVYLQMNSLKPEDTAVYYCARRSRESYEYDYWGQGTQVTVSS", "value": "low polyreactivity"}
{"sequence.entry": "QVQLEESGGGIVQAGGSLRLSCAASGITFYWYAMGWYRQAPGKERELVASITGNGGGTSYADSVKGRFTISRDNAKNTVYLQMNSLKPEDTAVYYCNTSVGVKDYVSWGQGTQVTLSS", "value": "low polyreactivity"}
{"sequence.entry": "QVQLVESGGGLVQAGGSLRLSCAASGRTQSANAMGWYREAPGKERELVATISTRGGRTYYADSVKGRFTISRDNAKNTVYLQMNSLKPEDTAVYYCAVTIRAKYTMKEDYWGQGTQVTVSS", "value": "low polyreactivity"}
{"sequence.entry": "QVQLVESGGGLVQAGGSLRLSCAASGLTFKVYDMGWYRKAPGKERELVAAIWSDGDTYYADSVKGRFTISRDNAKNTVYLQMNSLKPEDTGVYYCAAVPGCTVHFVYGNKYDYWGQGTQVTVSS", "value": "low polyreactivity"}
{"sequence.entry": "QVQLVESGGGLVQAGGSLRLSCAASGITFVRYAMGGYRQAPGKESELVAGISRGGSTNYADSVKGRFTISRDNAKNTVYLQMNSLKPEDSAVYYCNALYARRVYVGYDYWGQGTQVTVSS", "value": "high polyreactivity"}
